The reported numbers originate from ChEMBL document CHEMBL1136837.

Reported IC50 values for a set of compounds
- Tested on: Vaccinia virus
- experiment: Antiviral activity against Vaccinia virus
- Format: functional, organism-based, Orthopoxvirus vaccinia
- test parameters: Orthopoxvirus vaccinia
readout kind: IC50 (µM)

[[record]]
compound = "O=c1[nH]c(=O)n([C@H]2C[C@H](O)[C@@H](CO)O2)cc1/C=C/Br [BRIVUDINE]"
unit_label = "µM"
numeric_value = 400

[[record]]
compound = "Nc1nc(N)n(CCOCP(=O)(O)O)c(=O)c1C1CC1"
unit_label = "µM"
numeric_value = 0.0012

[[record]]
compound = "Nc1nc(N)c(Cc2ccccc2)c(OCCOCP(=O)(O)O)n1"
unit_label = "µM"
numeric_value = 0.0012

[[record]]
compound = "Nc1nc(N)n(CCOCP(=O)(O)O)c(=O)c1CC(=O)O"
unit_label = "µM"
numeric_value = 0.0012

[[record]]
compound = "Nc1nc(N)c(Br)c(OCCOCP(=O)(O)O)n1"
unit_label = "µM"
numeric_value = 0.0007

[[record]]
compound = "CCOC(=O)Cc1c(N)nc(N)n(CCOCP(=O)(O)O)c1=O"
unit_label = "µM"
numeric_value = 0.0012

[[record]]
compound = "NC(=O)c1ncn([C@@H]2O[C@H](CO)[C@@H](O)[C@H]2O)n1 [RIBAVIRIN]"
unit_label = "µM"
numeric_value = 281

[[record]]
compound = "CCOC(=O)C(C)NP1(=O)CO[C@@H](Cn2ccc(N)nc2=O)CO1 (some centres not stated)"
unit_label = "µM"
numeric_value = 15

[[record]]
compound = "CC(C)OC(=O)OCOP(=O)(CO[C@H](C)Cn1cnc2c(N)ncnc21)OCOC(=O)OC(C)C [TENOFOVIR DISOPROXIL]"
unit_label = "µM"
numeric_value = 157

[[record]]
compound = "C[C@H](Cn1cnc2c(N)ncnc21)OCP(=O)(O)O [TENOFOVIR ANHYDROUS]"
unit_label = "µM"
numeric_value = 300

[[record]]
compound = "CCc1nn([C@H]2C[C@H](O)[C@@H](CO)S2)c(=O)nc1O"
unit_label = "µM"
numeric_value = 200

[[record]]
compound = "Nc1nc(N)n(CCOCP(=O)(O)O)c(=O)c1-c1ccccc1"
unit_label = "µM"
numeric_value = 0.0012

[[record]]
compound = "CN(C)c1nc(N)nc2c1ncn2CCOCP(=O)(O)O"
unit_label = "µM"
numeric_value = 35

[[record]]
compound = "Nc1ccn([C@@H]2CS[C@H](CO)O2)c(=O)n1 [LAMIVUDINE]"
unit_label = "µM"
numeric_value = 436

[[record]]
compound = "O=c1[nH]cnc2c1ncn2[C@H]1CC[C@@H](CO)O1 [DIDANOSINE]"
unit_label = "µM"
numeric_value = 423

[[record]]
compound = "CCCCCCCCCCCCCCCCCCOCCOP(=O)(O)CO[C@H](CO)Cn1ccc(N)nc1=O"
unit_label = "µM"
numeric_value = 0.24

[[record]]
compound = "Nc1nc2c(ncn2COCCO)c(=O)[nH]1 [ACYCLOVIR]"
unit_label = "µM"
numeric_value = 0.384

